# system: JAK2 (Homo sapiens (Human), UniProt O60674)
# Sequence (O60674 849-1124): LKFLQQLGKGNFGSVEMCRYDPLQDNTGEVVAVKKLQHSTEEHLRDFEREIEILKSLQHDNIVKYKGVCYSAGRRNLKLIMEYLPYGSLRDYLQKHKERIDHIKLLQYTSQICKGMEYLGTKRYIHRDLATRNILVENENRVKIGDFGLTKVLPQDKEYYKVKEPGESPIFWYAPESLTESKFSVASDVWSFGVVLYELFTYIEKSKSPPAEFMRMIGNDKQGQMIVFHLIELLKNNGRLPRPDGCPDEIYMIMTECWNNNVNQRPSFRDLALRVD
# assay_notes: Jak Biochemical HTRF Assay, JAK2
# condition: HTRF biochemical assay, GST-tagged catalytic domain; top concentration tested […]
measurement_name: IC50 (nM)

1: CC(C)(C)OC(=O)N1CCC(CC#N)(n2cc(C(N)=O)c(Nc3ccc(Br)cc3)n2)CC1
2: N#CCC1(n2cc(C(N)=O)c(Nc3ccnc(F)c3)n2)CCN(Cc2ccn[nH]2)CC1
3: N#CCC1(n2cc(C(N)=O)c(Nc3ccccc3)n2)CCN(C/C=C/c2ccccc2)CC1
Rank the compounds listed above in increasing order of IC50. Rank them, then answer with their labels in that order.
1, 2, 3
(1: 23 nM, 2: 39 nM, 3: 208 nM)
